TARGET_SYSTEM: T1, bacterially produced human IL-6 (Homo sapiens, UniProt P05231)
T1 construct: His
T1 sequence (P05231 30-212): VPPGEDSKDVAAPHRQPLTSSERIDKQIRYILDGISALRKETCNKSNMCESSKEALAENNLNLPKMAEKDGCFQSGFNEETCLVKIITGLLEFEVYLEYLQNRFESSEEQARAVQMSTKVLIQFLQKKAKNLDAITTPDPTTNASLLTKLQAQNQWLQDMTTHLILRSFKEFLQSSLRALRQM
ASSAY_INFO: Surface plasmon resonance (Biacore), bacterially produced human IL-6 coated on CM5 chip
Assay type: binding
RUN_CONDITIONS: bact; periplasmic fractions, 29B11 chain shuffled
REPORTED_PROPERTY: KA

Query: Record request: KA value, item 48C10: 29B11 chain shuffled Fab, periplasmic fraction (antibody, listed as Lama glama, V domains shown) VH: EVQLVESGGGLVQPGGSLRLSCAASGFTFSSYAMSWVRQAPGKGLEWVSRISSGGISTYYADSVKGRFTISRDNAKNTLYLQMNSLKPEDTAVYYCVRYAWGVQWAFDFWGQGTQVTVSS VL: AQSVLTQPPSVSGSPGQTVTISCAGTSEDVGYGNYVSWYQQLPGMAPKLLIYDVNKRASGIADRFSGSKSGNTASLTISGLQSEDEADYYCASYRRTIDNIFGGGTHLTVLG
Response: 1.43e+09 M⁻¹
